biological target: Dickkopf-related protein 1 (Homo sapiens) (UniProt O94907); assay: DKK1 binders on small-molecule microarrays, primary screen, biochemical, small-molecule microarray, 635 nm fluorescence scan (AID 1106); conditions: DKK1 binding, higher = more signal;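 further: score merges emission near 667 nm with signal to noise over three replicate slides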
Sequence (O94907 whole entry, looked up): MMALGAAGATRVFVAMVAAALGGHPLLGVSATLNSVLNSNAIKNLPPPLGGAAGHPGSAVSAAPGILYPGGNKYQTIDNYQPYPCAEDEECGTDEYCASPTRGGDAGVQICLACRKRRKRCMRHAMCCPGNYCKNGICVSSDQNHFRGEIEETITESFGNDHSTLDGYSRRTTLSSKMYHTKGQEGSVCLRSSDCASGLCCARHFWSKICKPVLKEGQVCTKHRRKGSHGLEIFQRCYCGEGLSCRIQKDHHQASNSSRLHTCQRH
endpoint: composite z-score
Give bare numbers.

Illustrative cases are given below, each with its answer.
- compound.structure.string: "CCCNC(=O)OC[C@H]1O[C@H](CCON=C(C)CCC(=O)OC[C@H]2O[C@H](C#Cc3ccccc3)C=C[C@@H]2Oc2ccc(C)cc2)C=C[C@@H]1Oc1ccc(OC)cc1"
  tgt: "Dickkopf-related protein 1 (Homo sapiens) (UniProt O94907)"
  composite z-score: -0.121
- compound.structure.string: "CC(C)=NOC[C@@H](O)COCc1ccco1"
  tgt: "Dickkopf-related protein 1 (Homo sapiens) (UniProt O94907)"
  composite z-score: 0.421
- compound.structure.string: "C=C(C)C(=O)OC[C@@H]1CN2[C@@H](CC[C@@H](C)[C@@H]2c2ccc(Br)cc2)C(=O)O1"
  tgt: "Dickkopf-related protein 1 (Homo sapiens) (UniProt O94907)"
  composite z-score: 0.872
- compound.structure.string: "CC(C)=NOCc1ccc(-c2cn([C@@H]3COC[C@H]3O)nn2)cc1"
  tgt: "Dickkopf-related protein 1 (Homo sapiens) (UniProt O94907)"
  composite z-score: 0.455
- compound.structure.string: "CC(C)C(=O)N[C@@H]1CCCN1C(=O)C=Cc1ccccc1"
  tgt: "Dickkopf-related protein 1 (Homo sapiens) (UniProt O94907)"
  composite z-score: 0.47

Your task in this section: give composite z-score for each listed record.
1. CCOC(=O)NN=C1C[C@@H](O)[C@@H](O)[C@@H]2[C@@H]3C(=O)N(Cc4ccccc4)C(=O)[C@@H]3CC[C@@H]12
2. O=C1[C@H]2[C@H]3[C@H](O)[C@H](O)CC(=NOCc4ccccc4)[C@H]3CC[C@H]2C(=O)N1Cc1ccccc1
3. CC(C)CCN1CCc2nc(-c3ccccc3)c3c(c2C1)CO[C@@H](C)C3

0.355
0.737
0.689

====

Provide the recorded composite z-score for the entries that follow.
system: glycogen synthase kinase-3 (GSK3A per assay name; protocol says GSK3B); experiment: GSK3 binders on small-molecule microarrays, primary screen, biochemical, small-molecule microarray, 635 nm fluorescence, GSK3A (AID 1103); conditions: small-molecule microarray binding, fluorescence 635 nm; higher = more signal; further: the record names both GSK3A and GSK3B
One number for each entry.

Illustrative cases are given below, each with its answer.
- molecule: "COC(=O)[C@H](C)NC(=O)CCC1CC(OC(=O)NCCc2ccc(F)cc2)CC2(CCCC(COC(=O)NCCCN3CCCC3=O)O2)O1 (some centres not stated)"
  recorded.result: 1.28
- molecule: "CC(=O)OC[C@H]1O[C@H](C#CC(C)(C)C)C=C[C@@H]1OC(C)=O"
  recorded.result: 0.225
- molecule: "CC(C)=NO[C@@H](C)c1cc(-c2c(C)cc(C)cc2C)no1"
  recorded.result: -0.166
- molecule: "O=C(NN=C1C[C@@H](O)[C@@H](O)[C@@H]2[C@@H]3C(=O)N(Cc4ccc5c(c4)OCO5)C(=O)[C@@H]3CC[C@H]12)OCc1ccccc1"
  recorded.result: -1.2

Your task in this section: give composite z-score for each listed record.
1. CC(C)CON=C1C[C@@H](O)[C@@H](O)[C@@H]2[C@@H]3C(=O)N(c4cccc(Oc5ccccc5)c4)C(=O)[C@@H]3CC[C@H]12
2. C=CCN(CCCC)C(=O)C1N(CCCCCCO)C(=O)C2C(C(=O)O)C3C=CC21O3 (configuration not stated)
3. CCN1C(=O)[C@H]2[C@H]3[C@H](O)[C@H](O)CC(=NOC)[C@@H]3CC[C@H]2C1=O

[0.278, -1.1, -0.595]

====

target: Homeobox protein Hox-A13 (Mus musculus); test: inhibitors of HoxA13-DNA binding, primary screen, biochemical, fluorescence polarization, labeled oligonucleotide (AID 1185); conditions: 15 min, higher = more signal, called active from +8 up or from −8 down
endpoint: z-score
Answers are plain numbers.

- molecule: "COc1ccc(COC(=O)NN=C2C[C@@H](O)[C@@H](O)[C@@H]3[C@@H]4C(=O)N(C(C)(C)C)C(=O)[C@@H]4CC[C@H]23)cc1"
  z-score: 0.471

Your task in this section: give z-score for each listed record.
1. CCOC(=O)CCN1C(=O)[C@H]2[C@H]3[C@H](O)[C@H](O)CC(=NNC(=O)OCC)[C@@H]3CC[C@H]2C1=O
2. CC(C)CON=C1C[C@@H](O)[C@@H](O)[C@@H]2[C@@H]3C(=O)N(c4cccc(Oc5ccccc5)c4)C(=O)[C@@H]3CC[C@H]12
3. CC(C)=NOCc1ccc(-c2cn([C@@H]3COC[C@H]3O)nn2)cc1

1: 0.0438; 2: 0.875; 3: -0.221

Your task in this section: give z-score for each listed record.
1. CCOC(=O)[C@H](Cc1ccccc1)NC(=O)CCC1CC(OC(=O)NCc2cccc3ccccc23)CC2(CCCC(COC(=O)NCCCN3CCCC3=O)O2)O1 (stereo partly specified)
2. CO[C@@H]1C=CCC(=O)N2CCC[C@H]2C(=O)OC[C@H](C)C(=O)OC[C@H]1C
3. CC(C)CCN1CCc2nc(-c3ccccc3)c3c(c2C1)CO[C@@H](C)C3
4. CCOC(=O)NN=C1C[C@@H](O)[C@@H](O)[C@@H]2[C@@H]3C(=O)N(Cc4ccccc4)C(=O)[C@@H]3CC[C@@H]12

[-4.68, -0.499, -3.47, -0.411]

Your task in this section: give z-score for each listed record.
1. COC(=O)[C@H](C)NC(=O)CCC1CC(OC(=O)NCCc2ccc(F)cc2)CC2(CCCC(COC(=O)NCCCN3CCCC3=O)O2)O1 (stereo partly specified)
2. CCCNC(=O)OC[C@H]1O[C@H](CCON=C(C)CCN2CCc3nc(-c4ccccc4)c(-c4ccccc4)cc3C2)C=C[C@@H]1Oc1ccc(OC)cc1
3. CC(=O)OC[C@H]1O[C@H](C#CC(C)(C)C)C=C[C@@H]1OC(C)=O
4. O=C1NC(=O)C2C1C=CC(C(O)c1ccc([N+](=O)[O-])cc1)N2Nc1ccc(Cl)cc1Cl (stereo unspecified)
5. CO[C@H]1COC(=O)CC=C[C@@H](C)COC(=O)[C@@H](OCc2ccccc2)C=C[C@@H]1C
6. CCOC(=O)NN=C1C[C@@H](O)[C@@H](O)[C@@H]2[C@@H]3C(=O)N(Cc4ccc5c(c4)OCO5)C(=O)[C@@H]3CC[C@@H]12
7. CC(C)=NOC[C@@H](O)COCc1ccco1

-4.1
-2.84
-2.75
-5.8
-0.383
-0.24
-1.15

Form: Entry = `CCN1C(=O)[C@H]2[C@H]3[C@H](O)[C@H](O)CC(=NNC(=O)OCc4ccc(OC)cc4)[C@H]3CC[C@H]2C1=O` | System = Homeobox protein Hox-A13 (Mus musculus) | z-score = ____ 0.429

====

assay: binders of probe aFGF2 on microarray, primary screen, stem cell growth factor project, biochemical, small-molecule microarray, fluorescence 635/667 (AID 1067); conditions: higher = more signal;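 further: measures binding of biotinylated aFGF2 protein to printed compounds on slides; z-score merges feature fluorescence and signal-to-noise across triplicate slides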
endpoint: composite z-score
Answers are plain numbers.

- compound: "CC(C)C(=O)N[C@@H]1CCCN1C(=O)C=Cc1ccccc1"
  composite z-score: -0.0781
- compound: "CC(C)=NOC[C@@H](O)COCc1ccco1"
  composite z-score: -0.0924
- compound: "C[C@@H]1CC[C@@H](C(=O)O)N[C@H]1c1ccc(-c2ccco2)cc1"
  composite z-score: -0.0502
- compound: "COC(=O)[C@H](C)NC(=O)CCC1CC(OC(=O)NCCc2ccc(F)cc2)CC2(CCCC(COC(=O)NCCCN3CCCC3=O)O2)O1 (stereo not given in full)"
  composite z-score: -0.0358

Tell me the measured composite z-score of `CC(C)CCN1CCc2nc(-c3ccccc3)c3c(c2C1)CO[C@@H](C)C3` , please. -0.0996

====

Provide the recorded z-score for the entries that follow.
experiment: MM1S myeloma cell viability, profiling panel, resazurin fluorescence, basal, 24 h, PK04 Diversity Set (AID 1174); details: higher = more signal, called active from +8 up or from −8 down;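 further: MM1S multiple myeloma cell line; test concentration not given here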
Numbers only.

Illustrative cases are given below, each with its answer.
- molecule: "CC(=O)OC[C@H]1O[C@H](C#CC(C)(C)C)C=C[C@@H]1OC(C)=O"
  z-score: -0.756
- molecule: "CC(C)CCN1CCc2nc(-c3ccccc3)c3c(c2C1)CO[C@@H](C)C3"
  z-score: -0.0881

Your task in this section: give z-score for each listed record.
1. COC(=O)[C@H](C)NC(=O)CCC1CC(OC(=O)NCCc2ccc(F)cc2)CC2(CCCC(COC(=O)NCCCN3CCCC3=O)O2)O1 (some centres not stated)
2. CCCNC(=O)OC[C@H]1O[C@H](CCON=C(C)CCN2CCc3nc(-c4ccccc4)c(-c4ccccc4)cc3C2)C=C[C@@H]1Oc1ccc(OC)cc1
3. CC(C)CON=C1C[C@@H](O)[C@@H](O)[C@@H]2[C@@H]3C(=O)N(c4cccc(Oc5ccccc5)c4)C(=O)[C@@H]3CC[C@H]12
4. CCN1C(=O)[C@H]2[C@H]3[C@H](O)[C@H](O)CC(=NNC(=O)OCc4ccc(OC)cc4)[C@H]3CC[C@H]2C1=O
5. CCOC(=O)NN=C1C[C@@H](O)[C@@H](O)[C@@H]2[C@@H]3C(=O)N(Cc4ccccc4)C(=O)[C@@H]3CC[C@@H]12

1. 0.951
2. -0.53
3. 0.768
4. -2.24
5. -1.17
